Tested on: Bacillus subtilis
Test: cleaved RNA product abundance (RNA/gDNA barcode ratio) relative to median wild-type variant (ratio to wild type); higher = more accumulation of the downstream cleavage product
Details: experiment (reporter, strain, medium): exp 4a: truncated aprE reporter, strain BJT201 with 2% xylose (RNase J1 expressed); cleavage site: cggR-gapA (positions -7 to +36 mutated)
readout type: cleaved RNA product abundance

[
  {
    "monomer sequence": "ACAGACGAAGGAGCCGCAATGAAGTTATTAAAGGATGAATAATCCCTCAATATAAATATCTCTCACTTATTTAAA",
    "measured number": 0.181
  },
  {
    "monomer sequence": "ACAGACGAAGGAGCCGCAAAGAAGTTACTAAGGGATGAATAATCCCTCATTATAAATATCTCTCACTTATTTAAA",
    "measured number": 0.342
  },
  {
    "monomer sequence": "ACAGACGAAGGAGCCGCAAAGAAGTGATTAAGGGATGAATAATCCCTCAAAATAAATATCTCTCACTTATTTAAA",
    "measured number": 0.258
  },
  {
    "monomer sequence": "ACAGACGAAGGAGCCGCAAAGAAGTTATTAAGGGATGAATAAACACTCAATATAAATATCTCTCACTTATTTAAA",
    "measured number": 0.172
  },
  {
    "monomer sequence": "ACAGACGAAGGAGCCGCAAAGAAGTTGTTAAGGGATGAATAATCCCTCAAAATAAATATCTCTCACTTATTTAAA",
    "measured number": 0.316
  },
  {
    "monomer sequence": "ACAGACGAAGGAGCCGCAAAGAAGTTGTTAAGGGATGAATAAACCCTCAATATAAATATCTCTCACTTATTTAAA",
    "measured number": 0.2
  },
  {
    "monomer sequence": "ACAGACGAAGGAGCCGCAAAGAAGTTATTAAGTGATCAATAATCCCTCAATATAAATATCTCTCACTTATTTAAA",
    "measured number": 0.137
  },
  {
    "monomer sequence": "ACAGACGAAGGAGCCGCAAAGAATTTATTAAGGGATGAATAATCCCTCGATATAAATATCTCTCACTTATTTAAA",
    "measured number": 0.422
  },
  {
    "monomer sequence": "ACAGACGAAGGAGCCGCAAAGAAGCTATTAAGGGATCAATAATCCCTCAATATAAATATCTCTCACTTATTTAAA",
    "measured number": 0.425
  },
  {
    "monomer sequence": "ACAGACGAAGGAGCCGCAAAGAAGTTATTTAGGGATGAATAATCCCTCAATATAATTATCTCTCACTTATTTAAA",
    "measured number": 0.52
  },
  {
    "monomer sequence": "ACAGACGAAGGAGCCGCAAAGAAGTTAATAAGGGATGAATAATCCCTCAATATAAAAATCTCTCACTTATTTAAA",
    "measured number": 0.278
  },
  {
    "monomer sequence": "ACAGACGAAGGAGCCGCAAAGAAGTTATTAAGGGACTAATAATCCCTCAATATAAATATCTCTCACTTATTTAAA",
    "measured number": 1.01
  },
  {
    "monomer sequence": "ACAGACGAAGGAGCCGCAAAGAAGTTATGAAGGGACGAATAATCCCTCAATATAAATATCTCTCACTTATTTAAA",
    "measured number": 0.318
  },
  {
    "monomer sequence": "ACAGACGAAGGAGCCGCAAAGAAGATATTAAGGGATGAATGATCCCTCAATATAAATATCTCTCACTTATTTAAA",
    "measured number": 0.565
  },
  {
    "monomer sequence": "ACAGACGAAGGAGCCGCAAAGAAGTTATTAAGGGATTAATAATCCCACAATATAAATATCTCTCACTTATTTAAA",
    "measured number": 0.347
  }
]

----------
Test system: Bacillus subtilis
Experiment: cleaved RNA product abundance (RNA/gDNA barcode ratio) relative to median wild-type variant (ratio to wild type); higher = more accumulation of the downstream cleavage product
Details: experiment (reporter, strain, medium): exp 4a: truncated aprE reporter, strain BJT201 with 2% xylose (RNase J1 expressed); cleavage site: cggR-gapA (positions -7 to +36 mutated)
# cleaved RNA product abundance annotations

[
  {
    "monomer sequence": "ACAGACGAAGGAGCCGCAAAGAATTTATTAAGGGATGAATAATCCCTCAATATAAATAGCTCTCACTTATTTAAA",
    "cleaved RNA product abundance": 0.327
  },
  {
    "monomer sequence": "ACAGACGAAGGAGCCGCAAAGAAGTTATTAAGCGATGAATAATGCCTCAATATAAATATCTCTCACTTATTTAAA",
    "cleaved RNA product abundance": 0.112
  },
  {
    "monomer sequence": "ACAGACGAAGGAGCCGCAAAGAAGTTATTAAGGGATGAATAATACCTCAAAATAAATATCTCTCACTTATTTAAA",
    "cleaved RNA product abundance": 0.155
  },
  {
    "monomer sequence": "ACAGACGAAGGAGCCGCAAAGACGTTTTTAAGGGATGAATAATCCCTCAATATAAATATCTCTCACTTATTTAAA",
    "cleaved RNA product abundance": 0.44
  },
  {
    "monomer sequence": "ACAGACGAAGGAGCCGCAAAGTAGTTATTAAGGGATGAATAATCCCTCAATGTAAATATCTCTCACTTATTTAAA",
    "cleaved RNA product abundance": 0.13
  },
  {
    "monomer sequence": "ACAGACGAAGGAGCCGCACAGAAGTTATAAAGGGATGAATAATCCCTCAATATAAATATCTCTCACTTATTTAAA",
    "cleaved RNA product abundance": 0.414
  },
  {
    "monomer sequence": "ACAGACGAAGGAGCCGCAAAGAAGTTATTAAAGGATGTATAATCCCTCAATATAAATATCTCTCACTTATTTAAA",
    "cleaved RNA product abundance": 0.177
  }
]

----------
Test system: Bacillus subtilis
Experiment: cleaved RNA product abundance (RNA/gDNA barcode ratio) relative to median wild-type variant (ratio to wild type); higher = more accumulation of the downstream cleavage product
Settings: experiment (reporter, strain, medium): exp 4a: truncated aprE reporter, strain BJT201 with 2% xylose (RNase J1 expressed); cleavage site: cggR-gapA (positions -7 to +36 mutated)

[
  {
    "monomer sequence": "ACAGACGAAGGAGCCGCAAAGAAGTGATTAAGGGCTGAATAATCCCTCAATATAAATATCTCTCACTTATTTAAA",
    "cleaved RNA product abundance": 0.309
  },
  {
    "monomer sequence": "ACAGACGAAGGAGCCGCAAAGAAGTTATTAAGGAATGAATAATCCCTGAATATAAATATCTCTCACTTATTTAAA",
    "cleaved RNA product abundance": 0.0984
  },
  {
    "monomer sequence": "ACAGACGAAGGAGCCGCAAAGAAGTAATTAAGGGATGAAAAATCCCTCAATATAAATATCTCTCACTTATTTAAA",
    "cleaved RNA product abundance": 0.272
  },
  {
    "monomer sequence": "ACAGACGAAGGAGCCGCAAAGAAATTATTAAGGGATGAATAATCCCACAATATAAATATCTCTCACTTATTTAAA",
    "cleaved RNA product abundance": 0.298
  },
  {
    "monomer sequence": "ACAGACGAAGGAGCCGCAAAGTAATTATTAAGGGATGAATAATCCCTCAATATAAATATCTCTCACTTATTTAAA",
    "cleaved RNA product abundance": 0.645
  },
  {
    "monomer sequence": "ACAGACGAAGGAGCCGCCAAGAAGTTATTAAGGGATGAAAAATCCCTCAATATAAATATCTCTCACTTATTTAAA",
    "cleaved RNA product abundance": 0.576
  },
  {
    "monomer sequence": "ACAGACGAAGGAGCCGCAAAGAAGTTTTTATGGGATGAATAATCCCTCAATATAAATATCTCTCACTTATTTAAA",
    "cleaved RNA product abundance": 0.323
  }
]

----------
Test system: Bacillus subtilis
Assay: cleaved RNA product abundance (RNA/gDNA barcode ratio) relative to median wild-type variant (ratio to wild type); higher = more accumulation of the downstream cleavage product
Settings: experiment (reporter, strain, medium): exp 4a: truncated aprE reporter, strain BJT201 with 2% xylose (RNase J1 expressed); cleavage site: cggR-gapA (positions -7 to +36 mutated)

[
  {
    "monomer sequence": "ACAGACGAAGGAGCCGCAAAAAAGTTATTAAGGGATGAATAATCCCTCAATATAAATCTCTCTCACTTATTTAAA",
    "cleaved RNA product abundance": 0.362
  },
  {
    "monomer sequence": "ACAGACGAAGGAGCCGCAGAGAAGTTAATAAGGGATGAATAATCCCTCAATATAAATATCTCTCACTTATTTAAA",
    "cleaved RNA product abundance": 0.449
  },
  {
    "monomer sequence": "ACAGACGAAGGAGCCGCAAAGAAATTATTAAGGGATGACTAATCCCTCAATATAAATATCTCTCACTTATTTAAA",
    "cleaved RNA product abundance": 0.573
  },
  {
    "monomer sequence": "ACAGACGAAGGAGCCGCAAATAAGTTATTTAGGGATGAATAATCCCTCAATATAAATATCTCTCACTTATTTAAA",
    "cleaved RNA product abundance": 0.766
  },
  {
    "monomer sequence": "ACAGACGAAGGAGCCGCTAAGAAGTTATTAAGGGATGAATAATCACTCAATATAAATATCTCTCACTTATTTAAA",
    "cleaved RNA product abundance": 0.129
  },
  {
    "monomer sequence": "ACAGACGAAGGAGCCGCAAAGAAGTTATTAAGGGATGAATAATCAATCAATATAAATATCTCTCACTTATTTAAA",
    "cleaved RNA product abundance": 0.107
  },
  {
    "monomer sequence": "ACAGACGAAGGAGCCGCAAAGAAGTTATTACTGGATGAATAATCCCTCAATATAAATATCTCTCACTTATTTAAA",
    "cleaved RNA product abundance": 0.199
  }
]
